Please provide measured Growth Rate for the entries that follow.
- Tested on: HEK-293T
- protocolSummary: Incucyte cell viability with HEK293T; further: filed as whole numbers so only -1 and 0 and 1 occur
- Assay type: toxicity, cell-based
- experimentalSetup: human, 0 h, 10 µM, compound concentration 10 uM, replicate number 2, timepoint 0 hours
Answer field: number only, no words.

Request: Look up Growth Rate with HEK-293T for this compound: CN1CCN(C(=O)C(C)(C)c2ccc(C(=O)Nc3cn4cc(-c5cc(C(C)(C)C)cc(C(C)(C)C)c5)ccc4n3)cc2)CC1
Response: 1

Request: Look up Growth Rate with HEK-293T for this compound: Cc1oncc1C(=O)Nc1ccc(C(F)(F)F)cc1 [LEFLUNOMIDE]
Response: 0

Request: Look up Growth Rate with HEK-293T for this compound: FC(F)(F)c1cccc(-c2noc(-c3cc(-c4ccccc4)c(C(F)(F)F)s3)n2)c1
Response: 0

Request: Look up Growth Rate with HEK-293T for this compound: CCOc1cc(C(=O)N2CCC(N3CCN(C)CC3)CC2)ccc1Nc1ncc2c(n1)N(C1CCCC1)c1ccccc1C(=O)N2C
Response: 0
